# assayed.system: UniProt:Q96LA9
# Sequence (Q96LA9 whole entry): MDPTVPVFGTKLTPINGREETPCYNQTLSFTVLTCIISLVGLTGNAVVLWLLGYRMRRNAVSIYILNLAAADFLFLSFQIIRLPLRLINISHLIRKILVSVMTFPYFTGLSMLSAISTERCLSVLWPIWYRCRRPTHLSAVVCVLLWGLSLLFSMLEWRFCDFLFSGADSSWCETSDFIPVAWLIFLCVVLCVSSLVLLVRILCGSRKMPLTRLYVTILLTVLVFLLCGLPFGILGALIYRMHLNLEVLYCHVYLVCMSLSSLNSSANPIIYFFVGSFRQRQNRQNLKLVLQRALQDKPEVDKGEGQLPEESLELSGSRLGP
# experiment.notes: MRGPRX4 activation, Fluo-8 Ca2+ FLIPR assay in HEK293T cells stably expressing MRGPRX4
# Assay type: cell-based
# conditions.used: Conc. (Log[M]) −4.5
# Experimental: In some embodiments, cells were cultured in poly-D-Lys coated blacked walled, clear-bottom 96-well microplates. […] The concentration of solution should be determined according to the protocol settings and experimental needs (e.g., Log[M]=−4, −5, −6, −7, −8, and −9). […] A fluorescent signal baseline was measured using FLIPR®Tetra for 30 s. […] The fluorescent signal would be measured for another 150 s. Activity of each compound was calculated by the fluorescence change (dF/F0). […]
Below, each entry is listed alongside its reported MRGPRX4 activation, fluorescence change (dF/F0), Average.
I'd appreciate a reply containing only the number, no unit.

As a guide, the following entries are already answered.
# compound, test.value
records = [
    ("CC[C@H]1[C@@H](O)[C@@H]2[C@H](CC[C@]3(C)[C@@H]([C@H](C)CCNC(=O)NS(=O)(=O)c4cc(F)ccc4F)CC[C@@H]23)[C@@]2(C)CC[C@H](F)C[C@@H]12 [9-2]", 0.162),
    ("CC[C@H]1[C@@H](OC(=O)c2cccc(I)c2)[C@@H]2[C@H](CC[C@]3(C)[C@@H]([C@H](C)CCC(=O)OC)CC[C@@H]23)[C@@]2(C)CCCC[C@@H]12 [1-5]", "−0.027"),
    ("CC[C@H]1[C@@H](O)[C@@H]2[C@H](CC[C@]3(C)[C@@H]([C@H](C)CCNC(=O)NS(=O)(=O)N4CCCC4)CC[C@@H]23)[C@@]2(C)CCCC[C@@H]12 [5-11]", 0.030),
    ("CC[C@H]1[C@@H](O)[C@@H]2[C@H](CC[C@]3(C)[C@@H]([C@H](C)CCNC(=O)NS(=O)(=O)c4ccc(C(C)(C)C(N)=O)cc4)CC[C@@H]23)[C@@]2(C)CCCC[C@@H]12 [5-16]", 0.020),
    ("C[C@H](CCCO)[C@H]1CC[C@H]2[C@@H]3CC[C@@H]4CCCC[C@]4(C)[C@H]3CC[C@]12C [compound 77]", 0.014),
]

Input line: Give the measured MRGPRX4 activation, fluorescence change (dF/F0), Average of C[C@H](CCCCC(=O)O)[C@H]1CC[C@H]2[C@@H]3CC[C@@H]4C[C@H](O)CC[C@]4(C)[C@H]3CC[C@]12C [compound 84] .
Output line: 0.065

Input line: Give the measured MRGPRX4 activation, fluorescence change (dF/F0), Average of CC[C@H]1[C@@H](OC(=O)c2cccc(I)c2)[C@H]2[C@@H]3[C@@H](O)C=C([C@H](C)CCC(=O)OC)[C@@]3(C)CC[C@@H]2[C@@]2(C)CCCC[C@@H]12 [3-3] .
Output line: 0.052

====

# assayed.system: UniProt Q96LA9
# experiment.notes: MRGPRX4 activation, Fluo-8 Ca2+ FLIPR assay in HEK293T cells stably expressing MRGPRX4
# Assay type: cell-based
# Design: key: fluorescence change dF/F0
# conditions.used: E3-9, Conc. (Log[M]) −6.9
measured.property: MRGPRX4 activation, Average
I'd appreciate a reply containing only the number, no unit.

# compound, MRGPRX4 activation, Average
measured = [
    ("CC[C@H]1[C@@H](O)[C@@H]2[C@H](CC[C@]3(C)[C@@H]([C@H](C)CCNC(=O)C(=O)NS(=O)(=O)c4cc(F)ccc4F)CC[C@@H]23)[C@@]2(C)CCCC[C@@H]12", 0.020),
    ("CC[C@H]1[C@@H](O)[C@@H]2[C@H](CC[C@]3(C)[C@@H]([C@H](C)CCN=C=S)CC[C@@H]23)[C@@]2(C)CCCC[C@@H]12", 0.004),
    ("CC[C@H]1[C@@H](O)[C@@H]2[C@H](CC[C@]3(C)[C@@H]([C@H](C)CCNS(=O)(=O)c4cc(F)ccc4F)CC[C@@H]23)[C@@]2(C)CCCC[C@@H]12", 0.016),
    ("[2H]C1CC[C@@]2(C)[C@@H](C1)[C@@H](CC)[C@@H](O)[C@@H]1[C@@H]2CC[C@]2(C)[C@@H]([C@H](C)CCC(=O)O)CC[C@@H]12 (stereo partly shown)", 0.018),
]

Input line: Give the measured MRGPRX4 activation, Average of CC[C@H]1[C@@H](O)[C@@H]2[C@H](CC[C@]3(C)[C@@H]([C@H](C)CCNC(=O)NS(=O)(=O)c4ccc5c(c4)CCC(C)(C)O5)CC[C@@H]23)[C@@]2(C)CCCC[C@@H]12 .
Output line: 0.018

Input line: Give the measured MRGPRX4 activation, Average of [2H]C1([2H])CC[C@@]2(C)[C@@H](C1)[C@@H](CC)[C@@H](O)[C@@H]1[C@@H]2CC[C@]2(C)[C@@H]([C@H](C)CCN=C=S)CC[C@@H]12 .
Output line: 0.013

The reported numbers originate from patent US20260116910A1.
